Tested Target: T1, human gastric inhibitory peptide receptor (GIPR) (human, UniProt P48546 22-466); further: reference of the scale not given here
T1 sequence (looked up): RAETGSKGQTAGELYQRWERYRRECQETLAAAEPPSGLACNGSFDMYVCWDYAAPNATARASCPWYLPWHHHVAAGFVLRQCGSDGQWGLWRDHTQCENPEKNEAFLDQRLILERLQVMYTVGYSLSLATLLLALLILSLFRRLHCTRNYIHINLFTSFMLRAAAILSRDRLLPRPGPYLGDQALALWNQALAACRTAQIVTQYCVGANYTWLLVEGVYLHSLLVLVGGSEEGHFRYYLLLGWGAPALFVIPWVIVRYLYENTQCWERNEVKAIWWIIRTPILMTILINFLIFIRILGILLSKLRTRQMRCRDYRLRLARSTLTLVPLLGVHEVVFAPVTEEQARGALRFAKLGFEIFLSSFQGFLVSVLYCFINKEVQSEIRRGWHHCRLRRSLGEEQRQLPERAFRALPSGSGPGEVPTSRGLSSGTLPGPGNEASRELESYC
Test: cell-based or functional assay
Below: a set of entries, each annotated with reported hGIPR cAMP EC50 ratio.
Property: hGIPR cAMP EC50 ratio (ratio)

[[record]]
binder = "XXEGTFTSDYSIXLDKKAQXAFIEXLIAGGPSSGAPPPS (D-Tyr1; Aib2; αMeL13; K17 conjugated to (2-[2-(2-Amino-ethoxy)-ethoxy]-acetyl)2-(γ-Glu)-CO-(CH2)18-CO2H; Aib20; αMeY25; C-terminal amide) [Example 365]"
readout_value = 0.784

[[record]]
binder = "XXEGTFTSDYSIXLDXKAQXEFIEXLIAGGPSSGAPPPS (D-Tyr1; Aib2; αMeL13; Orn16; K17 conjugated to (2-[2-(2-Amino-ethoxy)-ethoxy]-acetyl)2-(γ-Glu)-CO-(CH2)16-CO2H; Aib20; αMeY25; C-terminal amide) [Example 375]"
readout_value = 1.13

[[record]]
binder = "XXEGTFTSDYSIXLDXKAQXDFIEYLIAGGPSSGAPPPS (D-Tyr1; Aib2; αMeL13; Orn16; K17 conjugated to (2-[2-(2-Amino-ethoxy)-ethoxy]-acetyl)2-(γ-Glu)-CO-(CH2)18-CO2H; Aib20; C-terminal amide) [Example 369]"
readout_value = 0.499

